Reference source for all entries: PubChem BioAssay (NCATS)

assay: qHTS of pediatric cancer cell lines to identify multiple opportunities for drug repurposing: Primary screen for TC32 cells (AID 1347089); settings: TC32 Ewing sarcoma viability, CellTiter-Glo luminescence, 48 h; series mostly up to 45.8 µM; further: nearly all actives have a fitted effect of over 60% in size
Results filed as inconclusive are left out. Activity calls are given as the source filed them. The call rests on the fitted dose curve; in most records, active means well fitted cell-killing curve with a large enough effect; inconclusive means small, poorly fitted or top-dose-only effect; inactive means flat fitted curve, though single readings scatter.
Output constraint: value belongs to t = active, f = inactive

Consider the following illustrative entries.
>  <Compound>
COc1ccc(S(=O)(=O)Nc2cc(-c3c(O)ccc4ccccc34)c(O)c3ccccc23)cc1

>  <Label value>
f

$$$$
>  <Compound>
COc1cc(C(C)C)c(Oc2cnc(NC(CO)CO)nc2N)cc1I

>  <Label value>
f

$$$$
>  <Compound>
COc1ccc(C[C@@H](C)[C@@H](C)Cc2ccc(OC)c(OC)c2)cc1OC

>  <Label value>
t

$$$$
>  <Compound>
C[C@H](NC(=O)C(C#N)=Cc1cccc(Br)n1)c1ccccc1

>  <Label value>
f

$$$$
>  <Compound>
O=S(=O)(O)CCSSCCS(=O)(=O)O

>  <Label value>
f

$$$$

query: Hi, do you know how "O=C(O)C=Cc1ccc(Cn2ccnc2)cc1" came out in this test?
result: f

query: Hi, do you know how "CON=C(C(=O)N[C@@H]1C(=O)N2C(C(=O)O)=C(Cn3ccc(=N)n3CCO)CS[C@H]12)c1csc(N)n1" came out in this test?
result: f

query: Hi, do you know how "C=Cc1c(C)c2cc3nc(cc4[nH]c(cc5nc(cc1[nH]2)C(C)=C5CCC(=O)O)c(CCC(=O)OC)c4C)[C@@]1(C)C3=CC=C(C(=O)OC)[C@H]1C(=O)OC" came out in this test?
result: t

query: Hi, do you know how CC(O)(C#Cc1ccc2c(c1)N(c1nc(N)ncc1Cl)CC2)c1nccs1 (stereo unspecified) came out in this test?
result: f

query: Hi, do you know how "CNC(=O)Nc1ccc(-c2nc(N3CC4CCC(C3)O4)c3cnn(C4CCC5(CC4)OCCO5)c3n2)cc1" came out in this test?
result: t

query: Hi, do you know how "CC(=O)O[C@H]1C[C@@H]2CC[C@H]3[C@H]4C[C@H]([N+]5(C)CCCCC5)[C@@H](OC(C)=O)[C@@]4(C)CC[C@@H]3[C@@]2(C)C[C@H]1N1CCCCC1" came out in this test?
result: f

query: Hi, do you know how CC(Cc1ccc(O)c(O)c1)(NN)C(=O)O (stereo unspecified) came out in this test?
result: f

query: Hi, do you know how "NC(=O)Nc1sc(-c2ccc(F)cc2)cc1C(N)=O" came out in this test?
result: t

query: Hi, do you know how "CN[C@H](CC(C)C)C(=O)N[C@H]1C(=O)N[C@@H](CC(N)=O)C(=O)N[C@@H]2C(=O)N[C@H]3C(=O)N[C@H](C(=O)N[C@H](C(=O)O)c4cc(O)cc(O)c4-c4cc3ccc4O)[C@H](O)c3ccc(c(Cl)c3)Oc3cc2cc(c3O[C@@H]2O[C@H](CO)[C@@H](O)[C@H](O)[C@@H]2O[C@H]2C[C@](C)(N)[C@H](O)[C@H](C)O2)Oc2ccc(cc2Cl)[C@H]1O" came out in this test?
result: f

query: Hi, do you know how C[C@]12CCC(=O)C=C1[C@@H]1CC1[C@H]1[C@H]3[C@@H]4C[C@H]4[C@@]4(CCC(=O)O4)[C@@]3(C)CC[C@H]12 (stereo partly specified) came out in this test?
result: f

query: Hi, do you know how "CC(C)N1[N]C(=C2C=c3cc(O)ccc3=N2)c2c(N)ncnc21" came out in this test?
result: t
